Just for reference, ChEMBL document CHEMBL3745669 is where these values come from.

tested on: A549; assay: Cytotoxicity against human A549 cells after 48 hrs by SRB assay; format: functional, cell-based; conditions: A549, 48 h
parameter measured: IC50 (µM)
Give the value in µM but do not write µM after it.

Entry "COc1ccc(-c2cc(OC)c(O)c(Oc3c(OC)cc([C@@H](O)[C@H](O)CO)cc3OC)c2)c(OC)c1" — recorded IC50 = 12.7

Given item "COc1cc(-c2ccccc2)cc(Oc2c(OC)cc([C@@H](O)[C@H](O)CO)cc2OC)c1O" , the value recorded as its IC50 is 4.12

Item: "COc1ccc(-c2cc(OC)c(O)c(OC)c2)c(OC)c1" | IC50: 5.18

The compound identified as COc1cc([C@@H]2c3cc4c(cc3[C@@H](O[C@@H]3O[C@@H]5CO[C@@H](C)O[C@H]5[C@H](O)[C@H]3O)[C@H]3COC(=O)[C@H]23)OCO4)cc(OC)c1O [ETOPOSIDE] registered its IC50 at 1.74
